- measured-on: GDP-bound KRAS protein (aa 1-169), containing both G12D and C118A amino acid substitutions (Homo sapiens (Human), UniProt P01116, C118A/G12D)
- Sequence (P01116 other isoform, or with tags, fused parts or gaps G12D/C118A): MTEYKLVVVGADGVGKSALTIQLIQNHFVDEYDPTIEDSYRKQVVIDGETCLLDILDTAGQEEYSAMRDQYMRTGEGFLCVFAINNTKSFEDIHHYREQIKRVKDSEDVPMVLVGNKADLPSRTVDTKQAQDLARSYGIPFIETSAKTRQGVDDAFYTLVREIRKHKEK
- procedure-details: KRAS G12D Coupled Nucleotide Exchange Assay
- Type: biochemical
- test-parameters: read-out: KRAS G12D Coupled Exchange IC50
quantity: IC50 (nM)
Number only, in nM; omit the unit.

Recorded result, O=C1OCCc2c(Cl)cc3[nH]ncc3c2-c2ncc3c(nc(OC[C@@]45CCCN4C[C@H](F)C5)nc3c2F)N2CCO[C@]3(C2)C[C@H](C3)O1 , IC50: 2

Recorded result, Cc1cc2[nH]ncc2c2c1CCCCOC(=O)[C@@H]1CCCN(C1)c1nc(OC[C@@]34CCCN3C[C@H](F)C4)nc3c(F)c-2ncc13 , IC50: 14

Recorded result, O=C1CCCCc2c(Cl)cc3[nH]ncc3c2-c2ncc3c(nc(OC[C@@]45CCCN4C[C@H](F)C5)nc3c2F)N2CC[C@H]3CCN1[C@H]3C2 , IC50: 2

Recorded result, O=C1OCCc2c(F)ccc3cccc(c23)-c2ncc3c(nc(OC[C@@]45CCCN4C[C@H](F)C5)nc3c2F)N2CCOC[C@H](C2)O1 , IC50: 4

Recorded result, Cc1c2ncc3c(nc(OC[C@@]45CCCN4C[C@H](F)C5)nc13)N1CCC[C@](C)(C1)NC(=O)CCCc1c(F)ccc3cc(O)cc-2c13 , IC50: 3

Consider the additional molecule presented here.
Recorded result, O=C1N[C@@H]2CC[C@H](O)CN(C2)c2nc(OC[C@@]34CCCN3C[C@H](F)C4)nc3c(F)c(ncc23)-c2c(c(Cl)cc3[nH]ncc23)CCCO1 (racemic) , IC50: 3

###

- measured-on: His-tagged KRAS G12D protein (Homo sapiens (Human), UniProt P01116, G12D)
- Sequence (P01116 other isoform, or with tags, fused parts or gaps G12D): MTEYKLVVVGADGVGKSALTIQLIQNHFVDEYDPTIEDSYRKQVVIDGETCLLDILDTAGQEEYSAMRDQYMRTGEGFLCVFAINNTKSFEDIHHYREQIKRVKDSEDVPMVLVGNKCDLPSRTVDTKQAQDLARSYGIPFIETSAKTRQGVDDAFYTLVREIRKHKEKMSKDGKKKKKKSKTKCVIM
- procedure-details: KRAS G12D TR-FRET Assay
- Assay type: binding
- test-parameters: read-out: KRAS G12D Binding IC50
pIC50: −log10 of the molar value.
Please note: Criterion met applies when pIC50 is 8 or greater, and Criterion not met applies otherwise.

Recorded results for 7 molecules are shown here.
Quick check: does Cc1cc2[nH]ncc2c2c1CCCCC(=O)N[C@]1(C)CCCN(C1)c1nc(OC[C@@]34CCCN3C[C@H](F)C4)nc3c(F)c-2ncc13 [Example 20, bis(2,2,2-trifluoroacetate)] have pIC50 greater than or equal to 8?
Criterion not met

Quick check: does O=C1OCCCc2c(Cl)cc3[nH]ncc3c2-c2ncc3c(nc(OC[C@@]45CCCN4C[C@H](F)C5)nc3c2F)N2CCOC[C@](CF)(C2)O1 have pIC50 greater than or equal to 8?
Criterion met

Quick check: does O=C1OCCCc2c(Cl)cc3[nH]ncc3c2-c2ncc3c(nc(OC[C@@]45CCCN4C[C@H](F)C5)nc3c2F)N2CCC[C@](CF)(C2)O1 have pIC50 greater than or equal to 8?
Criterion met

Quick check: does Cc1cc2[nH]ncc2c2c1CCC[C@H](O)CC[C@H]1CCCN(C1)c1nc(OC[C@@]34CCCN3C[C@H](F)C4)nc3c(F)c-2ncc13 have pIC50 greater than or equal to 8?
Criterion not met

Quick check: does O=C1OCCCc2c(Cl)cc3[nH]ncc3c2-c2ncc3c(nc(OC[C@@]45CCCN4C[C@H](F)C5)nc3c2F)N2CCOC[C@@](CF)(C2)O1 have pIC50 greater than or equal to 8?
Criterion not met

Quick check: does Fc1c2ncc3c(nc(OC[C@@]45CCCN4C[C@H](F)C5)nc13)N1CCC[C@@](F)(COCCCCc3c(Cl)cc4[nH]ncc4c3-2)C1 have pIC50 greater than or equal to 8?
Criterion met

Quick check: does C[C@@]12COCCN(C1)c1nc(OC[C@@]34CCCN3C[C@H](F)C4)nc3c(F)c(ncc13)-c1c3c(cc4[nH]ncc14)CC[C@H]3CCOC(=O)O2 have pIC50 greater than or equal to 8?
Criterion met

Here is another molecule to look at.
Quick check: does C[C@]12CCCCN(C1)c1nc(OC[C@@]34CCCN3C[C@H](F)C4)nc3c(F)c(ncc13)-c1c(c(Cl)cc3[nH]ncc13)CCCCC(=O)N2 have pIC50 greater than or equal to 8?
Criterion not met

###

- Tested on: Phosphorylation of ERK1/2 in AsPC-1 cells
- procedure-details: Phospho-ERK1/2 MSD Assay
- Type: cell-based, human
- test-parameters: 2 h, read-out: 2 h p-ERK (AsPC-1 cells), IC50
quantity: pIC50
# pIC50: negative log10 of molar concentration; output just the value

Reference set, count: 2
Item Cc1c2ncc3c(nc(OC[C@@]45CCCN4C[C@H](F)C5)nc13)N1CCOC[C@H](C1)OC(=O)OCCCc1c(Cl)cc3[nH]ncc3c1-2 (atropisomer, axis not shown) [Example 341] was tested on Phosphorylation of ERK1/2 in AsPC-1 cells; the reported pIC50 is 7.18

Item Fc1c2ncc3c(nc(OC[C@@]45CCCN4C[C@H](F)C5)nc13)N1CCC[C@]3(C1)C[C@H](C3)OCCCCc1c(Cl)cc3[nH]ncc3c1-2 was tested on Phosphorylation of ERK1/2 in AsPC-1 cells; the reported pIC50 is 8.49

---
Item Fc1c2ncc3c(nc(OC[C@@]45CCCN4C[C@H](F)C5)nc13)N1CCC[C@H](C1)c1coc(n1)CCCc1c(Cl)cc3[nH]ncc3c1-2 was tested on Phosphorylation of ERK1/2 in AsPC-1 cells; the reported pIC50 is 8.00

Item Cc1cc2[nH]ncc2c2c1CCCn1ncc(n1)C1CCCN(C1)c1nc(OC[C@@]34CCCN3C[C@H](F)C4)nc3c(F)c-2ncc13 (stereo partly drawn) was tested on Phosphorylation of ERK1/2 in AsPC-1 cells; the reported pIC50 is 6.56

Item O[C@@H]1C[C@@H]2CN(C1)c1nc(OC[C@@]34CCCN3C[C@H](F)C4)nc3c(F)c(ncc13)-c1c(c(Cl)cc3[nH]ncc13)CCCn1ncc2n1 (single isomer, unassigned) [Example 300] was tested on Phosphorylation of ERK1/2 in AsPC-1 cells; the reported pIC50 is 7.63

Item O=C1OCCCc2c(Cl)cc3[nH]ncc3c2-c2ncc3c(nc(OC[C@@]45CCCN4C[C@H](F)C5)nc3c2F)N2CCC[C@]3(C2)C[C@H](C3)O1 was tested on Phosphorylation of ERK1/2 in AsPC-1 cells; the reported pIC50 is 7.52

Item O=C1COCCc2c(Cl)cc3[nH]ncc3c2-c2ncc3c(nc(OC[C@@]45CCCN4C[C@H](F)C5)nc3c2F)N2CC[C@H]3CCN1[C@H]3C2 was tested on Phosphorylation of ERK1/2 in AsPC-1 cells; the reported pIC50 is 6.91

Item Cc1cc2[nH]ncc2c2c1CCCC(F)C(=O)N[C@@H]1CCCCN(C1)c1nc(OC[C@@]34CCCN3C[C@H](F)C4)nc3c(F)c-2ncc13 (single isomer, unassigned) was tested on Phosphorylation of ERK1/2 in AsPC-1 cells; the reported pIC50 is 7.14

Item O=C1CC[C@@H]2C[C@@H]2c2c(Cl)cc3[nH]ncc3c2-c2ncc3c(nc(OC[C@@]45CCCN4C[C@H](F)C5)nc3c2F)N2CCC[C@H](C2)O1 was tested on Phosphorylation of ERK1/2 in AsPC-1 cells; the reported pIC50 is 7.89

###

- Test system: MIA PaCa-2 cells
- procedure-details: MIA PaCa-2 CTG Assay (CellTiter-Glo cell viability)
- Format: cell-based, human
- test-parameters: Homo sapiens; Mia PaCa-2, 72 h; second value of the cell; read-out: G12D/C/V Cell Proliferation CTG (72 h) Mia PaCa-2
quantity: log10(IC50) (log10 of the value in nM)
Kindly note that the scale is log10 and the underlying IC50 is in nM.

Reference set, count: 2
Recorded result, Cc1cc2[nH]ncc2c2c1CCOC(=O)OC[C@@H]1CCCN(C1)c1nc(OC[C@@]34CCCN3C[C@H](F)C4)nc3c(F)c-2ncc13 [Example 126, bis(2,2,2-trifluoroacetate)] , log10(IC50): 1.78

Recorded result, C[C@@]12CCCCN(C1)c1nc(OC[C@@]34CCCN3C[C@H](F)C4)nc3c(F)c(ncc13)-c1c(c(Cl)cc3[nH]ncc13)CCC[C@H](F)C(=O)N2 (mixture of isomers) , log10(IC50): 1.95

---
Recorded result, CN1C[C@H](F)C[C@H]1COc1nc2c3cnc(c(F)c3n1)-c1c(c(Cl)cc3[nH]ncc13)CCCOC(=O)O[C@]1(C)COCCN2C1 , log10(IC50): 1.52

Recorded result, Cc1cc2[nH]ncc2c2c1CCCC(F)C(=O)N[C@@H]1CCCCN(C1)c1nc(OC[C@@]34CCCN3C[C@H](F)C4)nc3c(F)c-2ncc13 (single isomer, unassigned) , log10(IC50): 2.62

Taken from patent US20240294551A1.
